All values here come from patent US11033535B2.

Experiment: Pharmacokinetic evaluation following a single oral and intravenous administration
Assay type: in vivo, CD1 mouse
Details: CD1, mouse, plasma, iv, 1 mg/kg, Table 3, IV Dose: 1 mg/kg, 5 min, mean; read-out: Concentration, Mean
Procedure: A NMP stock solution was prepared by adding 1.136 mL of NMP to 5.68 mg of compound no. 42140 with vortexing and sonification, to obtain a solution with a concentration at 5 mg/mL of 42140:01. Next, to prepare an intravenous formulation, 0.100 mL of the 5 mg/mL stock solution was placed in a new vial. 0.100 mL of NMP and 0.400 mL of PEG400 were added with vortexing and sonification, followed by addition of 0.400 mL of saline with vortexing and sonification. […] 42140:01. […]
reported-endpoint: concentration at 5 min (ng/mL)
Give just the numeric value; ng/mL need not be written.

Consider the compound `CNCc1ccc(C[C@H](NC(C)=O)c2nnc(-c3cccc(OC(F)(F)F)c3)s2)cc1` and give its measured concentration at 5 min.
90.8

###

Test: Pharmacokinetic evaluation following a single oral and intravenous administration
Assay type: in vivo, CD1 mouse
Details: CD1, mouse, plasma, iv, 1 mg/kg, Table 10, IV Dose: 1 mg/kg, mean; read-out: Vss—obs, Mean
Procedure: A NMP stock solution was prepared by adding 1.136 mL of NMP to 5.68 mg of compound no. 42140 with vortexing and sonification, to obtain a solution with a concentration at 5 mg/mL of 42140:01. Next, to prepare an intravenous formulation, 0.100 mL of the 5 mg/mL stock solution was placed in a new vial. 0.100 mL of NMP and 0.400 mL of PEG400 were added with vortexing and sonification, followed by addition of 0.400 mL of saline with vortexing and sonification. […] 42140:01. […]
reported-endpoint: Vd (L/kg)
All answers are understood in L/kg, so give the number only.

// returns reported Vd for input CC(=O)N[C@@H](Cc1ccc(CN(C)C)cc1)c1nnc(-c2cccc(OC(F)(F)F)c2)s1 [Compound 42320]
15.6

###

test: Pharmacokinetic evaluation following a single oral and intravenous administration; assay type: in vivo, CD1 mouse; details: Table 10, IV Dose: 1 mg/kg, Mouse 2
reported-endpoint: AUClast/D (h·ng/mL per mg/kg)
Enter your answer as a number in h·ng/mL per mg/kg; do not include the unit.

For the compound shown here, `CC(=O)N[C@@H](Cc1ccc(CN(C)C)cc1)c1nnc(-c2cccc(OC(F)(F)F)c2)s1` , give the reported AUClast/D.
153

###

assay: Pharmacokinetic evaluation following a single oral and intravenous administration; type: in vivo, CD1 mouse; conditions: CD1, mouse, plasma, po, 5 mg/kg, Table 11, PO Dose: 5 mg/kg, 4 h, Mouse 5; read-out: Concentration
reported-endpoint: concentration at 4 h (µg/mL)
Quick reminder: number only, in µg/mL, skip the unit.

I have this compound here, `CC(=O)N[C@@H](Cc1ccc(CN(C)C)cc1)c1nnc(-c2cccc(OC(F)(F)F)c2)s1` , and I need its recorded concentration at 4 h.
0.0642

###

test: Pharmacokinetic evaluation following a single oral and intravenous administration; assay type: in vivo, CD1 mouse; details: CD1, mouse, plasma, iv, 1 mg/kg, Table 10, IV Dose: 1 mg/kg, Mouse 3; read-out: T1/2 (converted)
reported-endpoint: half-life (h)
Answer with a number only, understood to be in h.

Bench note: what half-life did `CC(=O)N[C@@H](Cc1ccc(CN(C)C)cc1)c1nnc(-c2cccc(OC(F)(F)F)c2)s1` show?
2.68

###

assay: Pharmacokinetic evaluation following a single oral and intravenous administration; format: in vivo, CD1 mouse; conditions: CD1, mouse, plasma, iv, 1 mg/kg, Table 9, IV Dose: 1 mg/kg, 1 h, Mouse 2; read-out: Concentration
reported-endpoint: concentration at 1 h

Entry `CC(=O)N[C@@H](Cc1ccc(CN(C)C)cc1)c1nnc(-c2cccc(OC(F)(F)F)c2)s1` : reported concentration at 1 h = ?
39.4 ng/mL

###

Test: Pharmacokinetic evaluation following a single oral and intravenous administration
Format: in vivo, CD1 mouse
Conditions: CD1, mouse, plasma, iv, 1 mg/kg, Table 10, IV Dose: 1 mg/kg, Mouse 2
Description: A NMP stock solution was prepared by adding 1.136 mL of NMP to 5.68 mg of compound no. 42140 with vortexing and sonification, to obtain a solution with a concentration at 5 mg/mL of 42140:01. Next, to prepare an intravenous formulation, 0.100 mL of the 5 mg/mL stock solution was placed in a new vial. 0.100 mL of NMP and 0.400 mL of PEG400 were added with vortexing and sonification, followed by addition of 0.400 mL of saline with vortexing and sonification. […] 42140:01. […]
reported-endpoint: C0 (ng/mL)
Record the value in ng/mL, omitting the unit from your answer.

Param item = CC(=O)N[C@@H](Cc1ccc(CN(C)C)cc1)c1nnc(-c2cccc(OC(F)(F)F)c2)s1 [Compound 42320] ; retrieve measured C0.
106

###

assay: Pharmacokinetic evaluation following a single oral and intravenous administration; format: in vivo, CD1 mouse; conditions: CD1, mouse, plasma, po, 5 mg/kg, Table 5, PO Dose: 5 mg/kg, 24 h, Mouse 6; read-out: Concentration
reported-endpoint: concentration at 24 h (ng/mL)
Just the number in ng/mL, nothing appended.

Please report the recorded concentration at 24 h for `CNCc1ccc(C[C@H](NC(C)=O)c2nnc(-c3cccc(OC(F)(F)F)c3)s2)cc1` .
29.6

###

test: Pharmacokinetic evaluation following a single oral and intravenous administration; format: in vivo, CD1 mouse; details: CD1, mouse, plasma, iv, 1 mg/kg, Table 4, IV Dose: 1 mg/kg, mean; read-out: Vss—obs, Mean
reported-endpoint: Vd (L/kg)
Give the number; L/kg is assumed, so skip it.

Endpoint output: Vd of CNCc1ccc(C[C@H](NC(C)=O)c2nnc(-c3cccc(OC(F)(F)F)c3)s2)cc1 [Compound 42140] . Value?
23.9

###

test: Pharmacokinetic evaluation following a single oral and intravenous administration; format: in vivo, CD1 mouse; details: CD1, mouse, plasma, po, 5 mg/kg, Table 5, PO Dose: 5 mg/kg, 0.5 h, Mouse 5; read-out: Concentration
reported-endpoint: concentration at 0.5 h (ng/mL)
The reply should be a number in ng/mL, with the unit left off.

Value lookup for concentration at 0.5 h; key = `CNCc1ccc(C[C@H](NC(C)=O)c2nnc(-c3cccc(OC(F)(F)F)c3)s2)cc1`
91.9

###

assay: Pharmacokinetic evaluation following a single oral and intravenous administration; type: in vivo, CD1 mouse; conditions: CD1, mouse, plasma, po, 5 mg/kg, Table 6, PO Dose: 5 mg/kg, Mouse 4; read-out: MRTInf—obs
reported-endpoint: MRT inf (h)
A number alone suffices; assume h.

What MRT inf value was documented for this compound, `CNCc1ccc(C[C@H](NC(C)=O)c2nnc(-c3cccc(OC(F)(F)F)c3)s2)cc1` ?
15.8

###

Assay: Pharmacokinetic evaluation following a single oral and intravenous administration
Format: in vivo, CD1 mouse
Conditions: CD1, mouse, plasma, po, 5 mg/kg, Table 6, PO Dose: 5 mg/kg, Mouse 5; read-out: Cmax
Description: A NMP stock solution was prepared by adding 1.136 mL of NMP to 5.68 mg of compound no. 42140 with vortexing and sonification, to obtain a solution with a concentration at 5 mg/mL of 42140:01. Next, to prepare an intravenous formulation, 0.100 mL of the 5 mg/mL stock solution was placed in a new vial. 0.100 mL of NMP and 0.400 mL of PEG400 were added with vortexing and sonification, followed by addition of 0.400 mL of saline with vortexing and sonification. […] 42140:01. […]
reported-endpoint: Cmax (ng/mL)
State just the number; it will be interpreted in ng/mL.

Which Cmax value is on record for `CNCc1ccc(C[C@H](NC(C)=O)c2nnc(-c3cccc(OC(F)(F)F)c3)s2)cc1` ?
140

###

assay: Pharmacokinetic evaluation following a single oral and intravenous administration; format: in vivo, CD1 mouse; conditions: CD1, mouse, plasma, po, 5 mg/kg, Table 11, PO Dose: 5 mg/kg, 4 h, mean; read-out: Concentration, Mean
reported-endpoint: concentration at 4 h (ng/mL)
Could you give me the number in ng/mL? Just the number is fine.

Report concentration at 4 h for `CC(=O)N[C@@H](Cc1ccc(CN(C)C)cc1)c1nnc(-c2cccc(OC(F)(F)F)c2)s1` please.
76.8

###

experiment: Pharmacokinetic evaluation following a single oral and intravenous administration; format: in vivo, CD1 mouse; settings: CD1, mouse, plasma, po, 5 mg/kg, Table 5, PO Dose: 5 mg/kg, 8 h, mean; read-out: Concentration, Mean
reported-endpoint: concentration at 8 h (ng/mL)
Field format: number, assumed ng/mL, no unit text.

Can you share its concentration at 8 h? I mean this compound: CNCc1ccc(C[C@H](NC(C)=O)c2nnc(-c3cccc(OC(F)(F)F)c3)s2)cc1 [Compound 42140]
85.9
